study target: T1, ECD of murine IGSF11, recombinant biotinylated (mouse, UniProt P0C673 23-240)
T1 construct: whole entry named; also called Mouse IGSF11
T1 sequence: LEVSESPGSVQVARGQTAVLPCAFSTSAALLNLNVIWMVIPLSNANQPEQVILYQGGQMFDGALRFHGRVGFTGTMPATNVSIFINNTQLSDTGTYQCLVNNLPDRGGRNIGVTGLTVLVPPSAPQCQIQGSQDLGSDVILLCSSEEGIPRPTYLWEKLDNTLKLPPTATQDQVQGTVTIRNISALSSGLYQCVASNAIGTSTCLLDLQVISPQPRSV
test name: ELISA RFU>1.0
Please respond with reported ELISA binding signal (RFU) for every item in the list.

Reference set, count: 2
{"columns": ["binder", "reported result"],
 "data": [
  ["A-026 (scFv format) (scFv, V domains shown, scFv) VH: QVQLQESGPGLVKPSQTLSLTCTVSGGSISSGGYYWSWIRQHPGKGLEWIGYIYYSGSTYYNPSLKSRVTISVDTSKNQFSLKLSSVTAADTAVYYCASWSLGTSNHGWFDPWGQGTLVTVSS VL: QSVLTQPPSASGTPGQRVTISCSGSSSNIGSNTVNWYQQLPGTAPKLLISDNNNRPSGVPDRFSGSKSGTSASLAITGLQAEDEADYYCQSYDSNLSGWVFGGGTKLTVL", "> 1 rfu"],
  ["A-022 (scFv format) (scFv, V domains shown, scFv) VH: EVQLLESGPGLVKPSQTLSLTCTVSGGSISSGGYYWSWIRQHPGKGLEWIGYIYYSGSTYYNPSLKSRVTISVDTSKNQFSLKLSSVTAADTAVYYCARASRSTDYYFDYWGQGTLVTVSS VL: QPGLTQPPSMSYGLGQTATLTCTGNRNNIGDQGAAWLQQHQGHPPKLLSYRNNNGPSGISERLSASRSGNTASLTISGLQPEDEADYYCSAWDSSLRAWVFGGGTKLTVL", "> 1 rfu"]
]}

query: Give the reported value of ELISA binding signal (RFU) for this record: A-001 (scFv format) (scFv, V domains shown, scFv) VH: EVQLVESGGGLVKPGGSLRLSCAASGFTFSSYSMNWVRQAPGKGLEWVSSISSSSSYIYYADSVKGRFTISRDNAKNSLYLQMNSLRAEDTAVYYCVRSIIVQALGITSVFDIWGQGTMVTVSS VL: AIRLTQSPSSLSASVGDRVTISCRASQIISNHLNWYQQKPGKAPKLLIYAASRLQTGVPSRFSGSGSETDYTLTISSLQPEDFATYYCQQSYSNPRTFGHGTKVEIK
result: > 1 rfu
